Molecular target: rat FAAH (Rattus norvegicus)
Sequence (P97612 1-579): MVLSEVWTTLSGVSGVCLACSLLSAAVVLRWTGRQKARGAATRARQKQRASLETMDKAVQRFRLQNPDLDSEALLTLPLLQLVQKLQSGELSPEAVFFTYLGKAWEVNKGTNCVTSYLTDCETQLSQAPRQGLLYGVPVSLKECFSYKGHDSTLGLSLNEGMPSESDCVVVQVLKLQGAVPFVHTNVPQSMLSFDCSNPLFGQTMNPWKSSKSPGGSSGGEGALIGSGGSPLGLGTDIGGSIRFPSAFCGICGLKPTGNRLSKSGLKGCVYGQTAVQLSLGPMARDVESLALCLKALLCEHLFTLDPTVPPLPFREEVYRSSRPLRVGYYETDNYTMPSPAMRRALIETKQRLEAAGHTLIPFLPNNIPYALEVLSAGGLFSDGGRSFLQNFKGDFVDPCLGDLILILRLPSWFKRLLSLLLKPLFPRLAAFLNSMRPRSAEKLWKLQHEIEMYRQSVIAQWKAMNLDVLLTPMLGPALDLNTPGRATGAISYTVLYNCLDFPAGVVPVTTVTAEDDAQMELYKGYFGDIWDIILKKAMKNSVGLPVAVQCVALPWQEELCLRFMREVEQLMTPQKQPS
pIC50: −log10 of the molar value.
MEASURE_NAME: pIC50

For the molecule O=C(N[C@H]1CNC1=O)OCCCCC1CCCCC1 [Compound 6] , give its reported pIC50.
< 4.00
